system: TDF; assay: H1.0 immunofluorescence intensity relative to DMSO (% of DMSO); higher = stronger H1.0 induction, active = 120 or more; details: concentration: 10 µM; 24 h
RECORDED_ENDPOINT: H1.0 immunofluorescence intensity
Respond numerically, and do not add a unit to the figure.

Entry CC1CCC2(C(=O)O)CCC3(C)C(=CCC4C5(C)CC(O)C(O)C(C)(CO)C5CCC43C)C2C1C (stereo unspecified) has what H1.0 immunofluorescence intensity?
101

Same again, this time with CNC(C)C1CCC(N)C(OC2C(N)CC(N)C(OC3OCC(C)(O)C(NC)C3O)C2O)O1 (stereo unspecified)
95

Now consider O=C(C=Cc1ccc(O)c(O)c1)OCCc1ccccc1 [Caffeic acid phenethyl ester] .
94.7

Also, COc1ccc(CCN(C)CCCC(C#N)(c2ccc(OC)c(OC)c2)C(C)C)cc1OC (stereo unspecified) please.
90.6

Query CCCCCC(=O)C=CC1C(O)CC(O)C1CC=CCCCC(=O)O (stereo unspecified) next
92.9

Now consider O=[NH+]C=C1C=CN(CN2C=CC(=C[NH+]=O)C=C2)C=C1.[Br-].[Br-] [1,1'-methylenebis(4-(nitrosomethyl)pyridinium) bromide] .
89.7

* * *

Kindly state cell number for each of the entries shown.
system: TDF; assay: cell number relative to DMSO (% of DMSO); higher = more cells (less growth inhibition / toxicity); settings: concentration: 10 µM; 24 h
No unit in the answer, please; the number alone is enough.

Please report the recorded cell number for CCCCCCCCC1OC1CCCCCCCC(=O)O (stereo not given) .
99.9

Same for OCCn1cc(-c2cnc3nnn(Cc4ccc5ncccc5c4)c3n2)cn1
98.7

And CC(c1cc2ccccc2s1)N(O)C(N)=O (stereo not given) ?
98.4

# repeat for CCCCCCCCCCCC=CC(C)(C)C=CCCCC(=O)O
99.5

Same read-out for CC(C)S(=O)(=O)N[C@H]1CCOC[C@@H]1c1ccc(-c2ccc(C#N)s2)cc1 ?
98.3

* * *

Please provide measured H1.0 immunofluorescence intensity for the entries that follow.
tested on: HCC1569; assay: H1.0 immunofluorescence intensity relative to DMSO (% of DMSO); higher = stronger H1.0 induction, active = 140 or more; settings: concentration: 10 µM; 24 h
Write no unit; give the number alone.

# query: H1.0 immunofluorescence intensity | item CCCCCCCCCCCCCCCCCCC(=O)O | system: HCC1569
98

Please give the result for COC1C=COC2(C)Oc3c(C)c(O)c4c(O)c(cc(O)c4c3C2=O)NC(=O)C(C)=CC=CC(C)C(O)C(C)C(O)C(C)C(OC(C)=O)C1C (stereo not drawn) too.
103

NC(N)=NC(=O)c1nc(Cl)c(N2CCCCCC2)nc1N [5-(N,N-hexamethylene)amiloride] ?
100

// next record CC(c1cc2ccccc2s1)N(O)C(N)=O (stereo not drawn)
101

Same thing, different compound: CC(=O)OCC1(O)CC23CCC4c5ccoc5C=CC4(C)C2CCC1C3 (stereo not drawn) [Kahweol Acetate]
98.9

Also CCCCCCCCCCCCCCCCCC(=O)NCC(COP(=O)([O-])OCC[N+](C)(C)C)OC (racemic) , if possible.
101

Would you mind doing NC(N)=S as well?
99.6

CCCCCCCC(=O)OCC(CO)OC(=O)CCCCCCC (stereo not drawn) ?
98.6
